Below: a set of entries, each annotated with reported IC50.
target-or-test-system: USP30 (Homo sapiens, UniProt Q70CQ3)
experiment-description: USP30 biochemical IC50 assay
test-conditions: Examples of WO 2017/103614
recorded-endpoint: IC50

{"molecule": "N#CN1CCC(CNC(=O)c2csc(-c3ccccc3)n2)C1 (stereo not drawn)", "target-or-test-system": "USP30 (Homo sapiens, UniProt Q70CQ3)", "reported-measurement": "0.1 to 1 µM"}
{"molecule": "N#CN1CCC(CNC(=O)c2cc(-c3ccccc3)[nH]n2)C1 (stereo not drawn)", "target-or-test-system": "USP30 (Homo sapiens, UniProt Q70CQ3)", "reported-measurement": "0.1 to 1 µM"}
{"molecule": "N#CN1CC[C@H](CNC(=O)c2cc(-c3ccccc3Cl)no2)C1", "target-or-test-system": "USP30 (Homo sapiens, UniProt Q70CQ3)", "reported-measurement": "0.1 to 1 µM"}
{"molecule": "N#CN1CCC(CNC(=O)c2cc(-c3ccccc3)no2)C1 (stereo not drawn)", "target-or-test-system": "USP30 (Homo sapiens, UniProt Q70CQ3)", "reported-measurement": "0.1 to 1 µM"}
{"molecule": "N#Cc1cccc(-c2nnc(C(=O)NC[C@H]3CCN(C#N)C3)o2)c1", "target-or-test-system": "USP30 (Homo sapiens, UniProt Q70CQ3)", "reported-measurement": "< 0.01 µM"}
{"molecule": "N#Cc1cccc(-c2nnc(C(=O)NC[C@@H]3CCN(C#N)C3)o2)c1", "target-or-test-system": "USP30 (Homo sapiens, UniProt Q70CQ3)", "reported-measurement": "0.01 to 0.1 µM"}
{"molecule": "N#Cc1cccc(-n2cnc(C(=O)NC[C@H]3CCN(C#N)C3)c2)c1", "target-or-test-system": "USP30 (Homo sapiens, UniProt Q70CQ3)", "reported-measurement": "0.01 to 0.1 µM"}
{"molecule": "N#CN1CCC(CNC(=O)c2cc(-c3ccccc3F)n[nH]2)C1 (stereo not drawn)", "target-or-test-system": "USP30 (Homo sapiens, UniProt Q70CQ3)", "reported-measurement": "0.1 to 1 µM"}
{"molecule": "N#CN1CC[C@H](CNC(=O)c2ccn(-c3ccccc3)n2)C1", "target-or-test-system": "USP30 (Homo sapiens, UniProt Q70CQ3)", "reported-measurement": "0.1 to 1 µM"}

----------
target-or-test-system: USP30 (Homo sapiens, UniProt Q70CQ3)
Sequence (Q70CQ3 1-517): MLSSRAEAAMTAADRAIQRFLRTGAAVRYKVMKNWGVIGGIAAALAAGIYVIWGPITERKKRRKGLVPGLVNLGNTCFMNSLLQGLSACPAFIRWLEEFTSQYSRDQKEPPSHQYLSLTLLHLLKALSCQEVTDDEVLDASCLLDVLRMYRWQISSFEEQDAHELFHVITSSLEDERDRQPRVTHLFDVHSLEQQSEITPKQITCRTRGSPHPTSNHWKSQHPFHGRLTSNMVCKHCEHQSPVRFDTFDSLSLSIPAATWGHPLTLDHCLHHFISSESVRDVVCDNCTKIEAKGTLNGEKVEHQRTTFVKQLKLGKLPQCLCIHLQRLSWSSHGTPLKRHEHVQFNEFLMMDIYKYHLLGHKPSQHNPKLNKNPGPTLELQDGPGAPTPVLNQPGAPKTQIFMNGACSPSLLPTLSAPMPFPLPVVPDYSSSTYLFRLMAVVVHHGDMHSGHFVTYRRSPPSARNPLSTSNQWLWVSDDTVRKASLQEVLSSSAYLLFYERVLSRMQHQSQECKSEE
experiment-description: USP30 biochemical IC50 assay
pIC50: −log10 of the molar value.

{"compound": "N#CN1CC[C@H](CNC(=O)c2cnn(-c3cccc(Cl)c3)n2)C1", "pIC50": "> 8.00"}
{"compound": "C[C@@H]1C(CNC(=O)c2ncn(-c3cccc(C#N)c3)n2)CCN1C#N (mixture of isomers)", "pIC50": "7.00 to 8.00"}
{"compound": "N#CN1CC[C@H](CNC(=O)c2cn(-c3cccc(Cl)c3)nn2)C1", "pIC50": "6.00 to 7.00"}
{"compound": "N#CN1CCC(CNC(=O)c2ncn(-c3ccccc3)n2)C1 (stereo not shown)", "pIC50": "6.00 to 7.00"}

----------
Entries annotated with measured pIC50
target-or-test-system: USP30 (Homo sapiens)
experiment-description: USP30 biochemical IC50 assay
test-conditions: Examples of WO 2017/103614
pIC50: −log10 of the molar value.

{"compound": "N#CN1CCC(CNC(=O)c2ncc(-c3ccccc3)o2)C1 (stereo not drawn) [Example 38]", "pIC50": "6.00 to 7.00"}
{"compound": "N#Cc1ccc(-n2cnc(C(=O)NC[C@H]3CCN(C#N)C3)c2)cc1 [Example 72]", "pIC50": "6.00 to 7.00"}
{"compound": "N#CN1CC[C@H](CNC(=O)c2cc(-c3ccc(Cl)cc3)no2)C1 [Example 67]", "pIC50": "6.00 to 7.00"}
{"compound": "N#CN1CCC(CNC(=O)c2cnc(-c3ccccc3)o2)C1 (stereo not drawn) [Example 20]", "pIC50": "6.00 to 7.00"}
{"compound": "N#CN1CC[C@H](CNC(=O)c2cc(-c3ccccc3)on2)C1 [Example 58]", "pIC50": "6.00 to 7.00"}
{"compound": "N#CN1CC[C@H](CNC(=O)c2cc(-c3cccc(Cl)c3)no2)C1 [Example 55]", "pIC50": "7.00 to 8.00"}
{"compound": "N#CN1CC[C@H](CNC(=O)c2nc(-c3ccccc3)cs2)C1 [Example 62]", "pIC50": "6.00 to 7.00"}
{"compound": "N#CN1CC[C@H](CNC(=O)c2cnc(-c3ccccc3)[nH]2)C1 [Example 64]", "pIC50": "6.00 to 7.00"}
{"compound": "N#CN1CC[C@H](CNc2ncc(-c3ccccc3)s2)C1 [Example 9]", "pIC50": "7.00 to 8.00"}
